Source: PubChem BioAssay AID1159580

# measurement-notes: chemical genetic growth profiling, strain panel (AID 1159580);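 note: tested at 20 µM; growth read once vehicle control cultures reached saturation at 30 °C; 1 = growth at the plate median or of vehicle wells; lower values mean less growth of the strain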
# condition: S. cerevisiae deletion strains, growth OD, locus YLR085C, strain ARP6, hits give low values
Among all 5,500 compounds or so, about 2,000 (36%) were called active. Roughly 18% stayed inconclusive and do not appear here. The list shows a part of the results.
The entries below are paired with their reported normalized growth.
recorded-endpoint: normalized growth

# compound, quantitative-result
records = [
    ("COc1cc(N=Cc2ccc3c(c2)OCO3)c(OC)cc1Cl", 1.04),
    ("COC(=O)c1ccc([N+](=O)[O-])cc1Cl", 0.881),
    ("O=C(O)CCNC(=S)Nc1cccc(C(F)(F)F)c1", 0.971),
    ("CC(=O)c1ccc(-c2ccc(C(C)=O)cc2)cc1", 0.95),
    ("CCOC(=O)c1c(C)n(-c2ccccc2)c2ccc(O)cc12", 0.931),
    ("CN1c2ccccc2C(=O)NC1c1cc(Br)cs1 (configuration not stated)", 1.06),
    ("O=C(CCCCCCCCC(=O)c1ccccc1)c1ccccc1", 0.998),
]
